Measured values drawn from patent US20230129812A1 for this set.

Biological target: T1, activin A (UniProt P08476 311-426)
T1 construct: also called ActA
T1 sequence (looked up): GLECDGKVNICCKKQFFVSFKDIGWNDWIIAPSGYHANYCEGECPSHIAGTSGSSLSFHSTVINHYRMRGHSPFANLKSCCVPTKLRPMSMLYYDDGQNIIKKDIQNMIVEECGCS
Experiment: SPR (Biacore); ligand coupled, receptor flowed over (as reported in WO2006/012627)
MEASUREMENT TYPE: binding result

Answered cases to consult:
Soluble ActRIIB-Fc D80I (Table 11) (Fc fusion, UniProt Q13705 19-119, looked up, not shown: a dimerising Fc or GST) SGRGEAETRECIYYNANWELERTNQSGLERCEGEQDKRLHCYASWANSSGTIELVKKGCWLIDFNCYDRQECVATEENPQVYFCCCEGNFCNERFTHLPEA :: no binding
Soluble ActRIIB-Fc D80N (Table 11) (Fc fusion, UniProt Q13705 19-119, looked up, not shown: a dimerising Fc or GST) SGRGEAETRECIYYNANWELERTNQSGLERCEGEQDKRLHCYASWANSSGTIELVKKGCWLNDFNCYDRQECVATEENPQVYFCCCEGNFCNERFTHLPEA :: no binding
Soluble ActRIIB-Fc K74F (Table 11) (Fc fusion, UniProt Q13705 19-119, looked up, not shown: a dimerising Fc or GST) SGRGEAETRECIYYNANWELERTNQSGLERCEGEQDKRLHCYASWANSSGTIELVFKGCWLDDFNCYDRQECVATEENPQVYFCCCEGNFCNERFTHLPEA :: no binding
Soluble ActRIIB-Fc E37A (Table 11) (Fc fusion, UniProt Q13705 19-119, looked up, not shown: a dimerising Fc or GST) SGRGEAETRECIYYNANWALERTNQSGLERCEGEQDKRLHCYASWANSSGTIELVKKGCWLDDFNCYDRQECVATEENPQVYFCCCEGNFCNERFTHLPEA :: no binding
Soluble ActRIIB-Fc D80M (Table 11) (Fc fusion, UniProt Q13705 19-119, looked up, not shown: a dimerising Fc or GST) SGRGEAETRECIYYNANWELERTNQSGLERCEGEQDKRLHCYASWANSSGTIELVKKGCWLMDFNCYDRQECVATEENPQVYFCCCEGNFCNERFTHLPEA :: no binding
Soluble ActRIIB-Fc R56A (Table 11) (Fc fusion, UniProt Q13705 19-119, looked up, not shown: a dimerising Fc or GST) SGRGEAETRECIYYNANWELERTNQSGLERCEGEQDKALHCYASWANSSGTIELVKKGCWLDDFNCYDRQECVATEENPQVYFCCCEGNFCNERFTHLPEA :: no binding

Briefly, binding result measured for Soluble ActRIIB-Fc D80A (Table 11) (Fc fusion, UniProt Q13705 19-119, looked up, not shown: a dimerising Fc or GST) SGRGEAETRECIYYNANWELERTNQSGLERCEGEQDKRLHCYASWANSSGTIELVKKGCWLADFNCYDRQECVATEENPQVYFCCCEGNFCNERFTHLPEA : no binding

Briefly, binding result measured for Soluble ActRIIB-Fc D80F (Table 11) (Fc fusion, UniProt Q13705 19-119, looked up, not shown: a dimerising Fc or GST) SGRGEAETRECIYYNANWELERTNQSGLERCEGEQDKRLHCYASWANSSGTIELVKKGCWLFDFNCYDRQECVATEENPQVYFCCCEGNFCNERFTHLPEA : no binding

Briefly, binding result measured for Soluble ActRIIB-Fc D80G (Table 11) (Fc fusion, UniProt Q13705 19-119, looked up, not shown: a dimerising Fc or GST) SGRGEAETRECIYYNANWELERTNQSGLERCEGEQDKRLHCYASWANSSGTIELVKKGCWLGDFNCYDRQECVATEENPQVYFCCCEGNFCNERFTHLPEA : no binding
